Items are presented alongside their recorded IL-2, % of BMS, at 11.11111111 ug/mL.
Target: T1, human LAG3 expressed on cells (human, UniProt P18627 23-525)
T1 sequence (looked up): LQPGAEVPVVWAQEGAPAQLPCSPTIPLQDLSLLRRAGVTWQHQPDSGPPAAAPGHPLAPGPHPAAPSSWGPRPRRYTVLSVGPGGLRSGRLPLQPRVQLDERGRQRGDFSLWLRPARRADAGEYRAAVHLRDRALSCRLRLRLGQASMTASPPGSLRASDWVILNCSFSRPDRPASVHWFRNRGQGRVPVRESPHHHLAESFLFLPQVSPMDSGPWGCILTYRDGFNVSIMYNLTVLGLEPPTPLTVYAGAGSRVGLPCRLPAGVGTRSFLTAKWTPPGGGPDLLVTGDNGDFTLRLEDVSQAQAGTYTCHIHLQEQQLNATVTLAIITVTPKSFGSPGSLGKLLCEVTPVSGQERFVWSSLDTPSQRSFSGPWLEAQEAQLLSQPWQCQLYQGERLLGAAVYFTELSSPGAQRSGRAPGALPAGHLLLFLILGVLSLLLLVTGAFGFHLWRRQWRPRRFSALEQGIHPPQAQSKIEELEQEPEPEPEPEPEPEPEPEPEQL
Assay: cell-based or functional assay

binder: sdAb No. 17 (VHH, Fc of the tested form not described; also called sdAb 17; not shown: Fc part implied by anti-human Fc capture and anti-human IgG1 Fc detection) VHH: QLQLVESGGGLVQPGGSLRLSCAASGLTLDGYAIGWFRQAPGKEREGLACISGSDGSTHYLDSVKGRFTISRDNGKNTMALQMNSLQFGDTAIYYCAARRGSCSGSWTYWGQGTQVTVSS
unit-descriptor: %
IL-2, % of BMS, at 11.11111111 ug/mL: 38
//
binder: sdAb No. 18 (VHH, Fc of the tested form not described; also called sdAb 18; not shown: Fc part implied by anti-human Fc capture) VHH: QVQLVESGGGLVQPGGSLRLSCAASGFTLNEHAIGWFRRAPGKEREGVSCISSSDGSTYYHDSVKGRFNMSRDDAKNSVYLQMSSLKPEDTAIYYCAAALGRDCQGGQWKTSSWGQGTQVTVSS
unit-descriptor: %
IL-2, % of BMS, at 11.11111111 ug/mL: 45.5
//
binder: sdAb No. 73 (VHH, Fc not described; also called sdAb 73; not shown: Fc part implied by anti-human Fc capture) VHH: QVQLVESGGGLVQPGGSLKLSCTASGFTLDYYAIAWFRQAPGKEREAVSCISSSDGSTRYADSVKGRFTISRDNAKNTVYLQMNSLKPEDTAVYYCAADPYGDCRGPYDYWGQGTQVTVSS
unit-descriptor: %
IL-2, % of BMS, at 11.11111111 ug/mL: 30.6
//
binder: sdAb No. 21 (VHH, Fc of the tested form not described; also called sdAb 21; not shown: Fc part implied by anti-human Fc capture) VHH: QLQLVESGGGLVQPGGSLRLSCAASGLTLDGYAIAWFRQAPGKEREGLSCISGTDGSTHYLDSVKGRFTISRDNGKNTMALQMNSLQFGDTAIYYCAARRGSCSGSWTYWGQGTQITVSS
unit-descriptor: %
IL-2, % of BMS, at 11.11111111 ug/mL: 31.7
//
binder: sdAb No. 20 (VHH, Fc of the tested form not described; also called sdAb 20; not shown: Fc part implied by anti-human Fc capture) VHH: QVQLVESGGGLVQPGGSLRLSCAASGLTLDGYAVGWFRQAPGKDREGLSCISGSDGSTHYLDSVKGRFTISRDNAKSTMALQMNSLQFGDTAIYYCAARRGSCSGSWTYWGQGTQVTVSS
unit-descriptor: %
IL-2, % of BMS, at 11.11111111 ug/mL: 33
